Recorded values, source ChEMBL document CHEMBL5661975.

System: MDA-MB-175-VII
protocol_text: Antiproliferative activity against human MDA-MB-175-VII cells assessed as inhibition of cell growth
Format: functional, cell-based
test_readout: pIC50
One number for each entry, as −log10 of the molar value.

Please supply the value of reported pIC50 for the item "COCC(=O)NC/C=C/c1ccc2ncnc(Nc3ccc(Oc4ccc(C)nc4)c(C)c3)c2c1"
6.09

----------
System: UACC-812
protocol_text: Antiproliferative activity against human UACC-812 cells assessed as inhibition of cell growth
Type: functional, cell-based
test_readout: IC50
Write the quantity with the unit trailing the number.

Provide IC50 value for the following molecule: COCC(=O)NC/C=C/c1ccc2ncnc(Nc3ccc(Oc4ccc(C)nc4)c(C)c3)c2c1 [CP-724714]
1900 nM
